- TEST_TARGET: T1, CD123-Fc (Sino Biological) (human, UniProt P26951 19-305)
- T1 construct: Bought reagent; not shown: Fc of the bought fusion (detected with anti-human Fc, captured on AHC sensor)
- T1 sequence: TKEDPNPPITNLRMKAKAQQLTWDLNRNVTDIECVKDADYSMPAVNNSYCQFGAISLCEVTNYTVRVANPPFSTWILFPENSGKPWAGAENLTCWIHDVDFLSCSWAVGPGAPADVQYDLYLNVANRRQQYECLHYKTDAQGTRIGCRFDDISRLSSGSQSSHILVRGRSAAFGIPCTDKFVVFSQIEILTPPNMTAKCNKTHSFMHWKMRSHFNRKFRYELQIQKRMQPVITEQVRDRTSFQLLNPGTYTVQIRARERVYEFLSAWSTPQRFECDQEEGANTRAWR
- TEST_DETAILS: BLI (Octet), CD123-Fc captured on AHC sensor, Adapter 500-0.69 nM in solution, global 1:1 fit, 25 C
QUANTITY_KIND: kon (M⁻¹ s⁻¹)

INSERT INTO measurements (binder, quantity_kind, recorded_value) VALUES
  ('Adapter protein comprising the 4I0K D domain and a P26(Q26-V229) AFP polypeptide (designed binder, also called 6T1D(W16S); not shown: His tag (purified on Ni-Sepharose)) MGSWDEFGRRLYAIESQLYALGGTEAELAAFEKEIAAFESELQAYKGKGNPEVEKLREIAAVIRENLQAYRHNQESQALAKRSCGLFQKLGEYYLQNAFLVAYTKKAPQLTSSELMAITRKMAATAATCCQLSEDKLLACGEGAADIIIGHLCIRHEMTPVNPGVGQCCTSSYANRRPCFSSLVVDETYVPPAFSDDKFIFHKDLCQAQGVALQTMKQEFLINLVKQKPQITEEQLEAVIADFSGLLEKCCQGQEQEVCFAEEGQKLISKTRAALGV', 'kon', 177000);
